Values were extracted from the supplement of paper PMC10567573.

B1: ANKRD9 (parent)
chain: VGAAGSARQELLGDRPRWQRLLGE

variants of: B1; assay: protein stability index of a GFP-peptide fusion (GPS, HEK-293T) (PSI 1-6); higher = more stable; settings: c terminus: a fixed tail appended;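 further: lentivirally expressed fusions sorted by FACS into six bins by GFP to DsRed ratio, PSI derived from sequencing read proportions per bin multiplied by bin number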
Parameter threshold = 3. Response is Y when protein stability index meets or exceeds it, else N.

q: Could you verify whether the entry G23F shows protein stability index of no less than 3?
a: N

q: Could you verify whether the entry L22H shows protein stability index of no less than 3?
a: Y

q: Could you verify whether the entry Q9L shows protein stability index of no less than 3?
a: N

q: Could you verify whether the entry L12D shows protein stability index of no less than 3?
a: Y

q: Could you verify whether the entry G5Y shows protein stability index of no less than 3?
a: N

q: Could you verify whether the entry L21H shows protein stability index of no less than 3?
a: N

q: Could you verify whether the entry E10N shows protein stability index of no less than 3?
a: Y

q: Could you verify whether the entry R15S shows protein stability index of no less than 3?
a: Y

q: Could you verify whether the entry S6N shows protein stability index of no less than 3?
a: Y

q: Could you verify whether the entry L22P shows protein stability index of no less than 3?
a: Y

q: Could you verify whether the entry G2S shows protein stability index of no less than 3?
a: Y

q: Could you verify whether the entry S6L shows protein stability index of no less than 3?
a: N

q: Could you verify whether the entry P16V shows protein stability index of no less than 3?
a: Y

q: Could you verify whether the entry R20V shows protein stability index of no less than 3?
a: N

q: Could you verify whether the entry L22E shows protein stability index of no less than 3?
a: Y

q: Could you verify whether the entry E10A shows protein stability index of no less than 3?
a: N

q: Could you verify whether the entry L22T shows protein stability index of no less than 3?
a: Y

q: Could you verify whether the entry E10L shows protein stability index of no less than 3?
a: N

q: Could you verify whether the entry L12Y shows protein stability index of no less than 3?
a: Y

q: Could you verify whether the entry G2N shows protein stability index of no less than 3?
a: Y
